Record: compiled pKi on B1 bradykinin receptor (Homo sapiens) from multiple reports.
Reminder that pKi means the negative base-10 logarithm of the concentration expressed in mol/L.

*Q* Using B1 bradykinin receptor (Homo sapiens) as the test system, report measured pKi of COc1ncc(C(=O)NC2(C(=O)NC3CCc4cc(-c5cc(Cl)cc(F)c5-c5noc(C)n5)cc(F)c43)CC2)cn1 (racemic) .
*A* 7.72

*Q* Using B1 bradykinin receptor (Homo sapiens) as the test system, report measured pKi of "Cc1nc(-c2c(F)cc(Cl)cc2-c2cnc([C@@H](C)NC(=O)C3(NC(=O)c4cncnc4)COC3)c(F)c2)no1" .
*A* 8.96

*Q* Using B1 bradykinin receptor (Homo sapiens) as the test system, report measured pKi of "CNc1ccc2cc(CN(C)C(=O)COCCN(C)S(=O)(=O)c3c(C)cc(OC)cc3C)ccc2n1" .
*A* 8.57

*Q* Using B1 bradykinin receptor (Homo sapiens) as the test system, report measured pKi of "COc1cc(C)c(S(=O)(=O)N(C)CCOCC(=O)N(C)[C@H]2CC[C@@H](CCN3CCCC3)CC2)c(C)c1" .
*A* 8.82

*Q* Using B1 bradykinin receptor (Homo sapiens) as the test system, report measured pKi of "COc1cc(C)c(S(=O)(=O)N(C)CCOCC(=O)N(C)Cc2ccc(-c3cn(C)c(C)n3)cc2)c(C)c1" .
*A* 9.40

*Q* Using B1 bradykinin receptor (Homo sapiens) as the test system, report measured pKi of "COCC(=O)NC1(C(=O)N[C@H](C)c2ncc(-c3cc(Cl)cc(F)c3-c3noc(C)n3)cc2F)COC1" .
*A* 7.60

*Q* Using B1 bradykinin receptor (Homo sapiens) as the test system, report measured pKi of "COc1ncc(C(=O)NC2(C(=O)N[C@H](C)c3ccc(-c4cc(Cl)cc(F)c4-c4nnn(C)n4)cc3F)COC2)cn1" .
*A* 8.96
